The measured values listed here are drawn from paper PMC9161259.

Tested on: HuCCA-1 cholangiocarcinoma cancer cell line
Test: Cytotoxic assay
Conditions: Homo sapiens, HuCC-A1, 48 h, read-out: Cytotoxic activity IC50, HuCCA-1
measured_property: IC50

As a guide, the following entries are already answered.
entry_smiles	obs_value
COc1ccc(NC2=CC(=O)c3ccccc3C2=O)cc1	> 50 µg/mL
COc1ccc(NC2=C(Cl)C(=O)c3ccccc3C2=O)cc1	> 50 µg/mL

[ask] Item under review: O=C1C(Cl)=C(Nc2ccc(Br)cc2)C(=O)c2ccccc21 . Reported IC50?
[reply] > 50 µg/mL

----------
Quick reference for IC50 among some compounds
Test system: MDA-MB-231 hormone-independent breast cancer cell line
Test: Cytotoxic assay
Details: Homo sapiens, MDA-MB-231, 48 h, read-out: Cytotoxic activity IC50, MDA-MB-231
Answer in µM, number only, no unit symbol.

compound	tested_target	obs_value
O=C1C(Cl)=C(Nc2ccc(F)cc2)C(=O)c2ccccc21	MDA-MB-231 hormone-independent breast cancer cell line	17
O=C1C(Br)=C(Nc2ccc(F)cc2)C(=O)c2ccccc21	MDA-MB-231 hormone-independent breast cancer cell line	7.54

[ask] Item under review: N#Cc1ccc(NC2=C(Cl)C(=O)c3ccccc3C2=O)cc1 . Reported IC50?
[reply] 43.1

[ask] Item under review: COc1cccc2c1C(=O)c1c(O)c3c(c(O)c1C2=O)C[C@@](O)(C(=O)CO)C[C@@H]3O[C@H]1C[C@H](N)[C@H](O)[C@H](C)O1 [doxorubicin, reference compound] . Reported IC50?
[reply] 2.1

[ask] Item under review: O=C1C(Br)=C(Nc2ccccc2)C(=O)c2ccccc21 . Reported IC50?
[reply] 9.48
